IC50 values, listed per item
- Tested on: 5-LO
- assay-summary: inhibition of 5-LO (5-HETE production) in intact RBL-1 cells (whole cell)
- Assay type: cell-based, Rat
- condition-label: Table A
value-type: IC50 (nM)

INSERT INTO results (compound, assayed_system, value_type, reported_measurement) VALUES
  ('O=C(O)Cc1cc(-c2ccc(Cl)cc2)n(-c2ccc(OCc3ccc4ccccc4n3)cc2)n1', '5-LO', 'IC50', 390),
  ('ClCCc1cc(-c2ccc(Cl)cc2)n(-c2ccc(OCc3ccc4ccccc4n3)cc2)n1', '5-LO', 'IC50', 5300),
  ('CN(O)C(=O)OCCc1cc(-c2ccc(Cl)cc2)n(-c2ccc(OCc3ccc4ccccc4n3)cc2)n1 [Cpd 5, Hydrate]', '5-LO', 'IC50', 1100),
  ('O=C(O)CCc1cc(-c2ccc(Cl)cc2)n(-c2ccc(OCc3ccc4ccccc4n3)cc2)n1', '5-LO', 'IC50', 5200),
  ('CN(O)C(=O)CCc1cc(-c2ccc(Cl)cc2)n(-c2ccc(OCc3ccc4ccccc4n3)cc2)n1 [Cpd 22]', '5-LO', 'IC50', 1000),
  ('Cc1cc(-c2ccc(Cl)cc2)n(-c2ccc(OCc3ccc4ccccc4n3)cc2)n1', '5-LO', 'IC50', 6500),
  ('O=CCCc1cc(-c2ccc(Cl)cc2)n(-c2ccc(OCc3ccc4ccccc4n3)cc2)n1', '5-LO', 'IC50', 3200),
  ('CC(C)COC(=O)CCc1cc(-c2ccc(Cl)cc2)n(-c2ccc(OCc3ccc4ccccc4n3)cc2)n1', '5-LO', 'IC50', 1500);

====

- Test system: 5-LO
- assay-summary: inhibition of 5-LO (5-HETE production) in intact RBL-1 cells (whole cell)
- Format: cell-based, Rat
- condition-label: Table A
value-type: IC50 (nM)

INSERT INTO assay_data (molecule, reported_measurement) VALUES
  ('CN(O)C(=O)CCc1cc(-c2ccc(Cl)cc2)n(-c2ccc(OCc3ccc4ccccc4n3)cc2)n1 [Cpd 7]', 490),
  ('OCCCc1cc(-c2ccc(Cl)cc2)n(-c2ccc(OCc3ccc4ccccc4n3)cc2)n1', 840),
  ('COc1ccc(-n2nc(CCC(=O)O)cc2-c2ccc(OCc3ccc4ccccc4n3)cc2)cc1 [Cpd 13]', 3900),
  ('ON=CCCc1cc(-c2ccc(Cl)cc2)n(-c2ccc(OCc3ccc4ccccc4n3)cc2)n1 [Cpd 9, Hydrate]', 550),
  ('CCOC(=O)CCc1cc(-c2ccc(Cl)cc2)n(-c2ccc(OCc3ccc4ccccc4n3)cc2)n1', 7400);

====

- assayed-system: 5-lipoxygenase (Rattus norvegicus, UniProt P12527)
- Construct: The pellet was discarded and the supernatant was saved as the source of enzymes; endogenous in cells; host or cells: RBL-1 (rat basophilic leukemia) cells, homogenate supernatant
- Sequence (P12527 whole entry): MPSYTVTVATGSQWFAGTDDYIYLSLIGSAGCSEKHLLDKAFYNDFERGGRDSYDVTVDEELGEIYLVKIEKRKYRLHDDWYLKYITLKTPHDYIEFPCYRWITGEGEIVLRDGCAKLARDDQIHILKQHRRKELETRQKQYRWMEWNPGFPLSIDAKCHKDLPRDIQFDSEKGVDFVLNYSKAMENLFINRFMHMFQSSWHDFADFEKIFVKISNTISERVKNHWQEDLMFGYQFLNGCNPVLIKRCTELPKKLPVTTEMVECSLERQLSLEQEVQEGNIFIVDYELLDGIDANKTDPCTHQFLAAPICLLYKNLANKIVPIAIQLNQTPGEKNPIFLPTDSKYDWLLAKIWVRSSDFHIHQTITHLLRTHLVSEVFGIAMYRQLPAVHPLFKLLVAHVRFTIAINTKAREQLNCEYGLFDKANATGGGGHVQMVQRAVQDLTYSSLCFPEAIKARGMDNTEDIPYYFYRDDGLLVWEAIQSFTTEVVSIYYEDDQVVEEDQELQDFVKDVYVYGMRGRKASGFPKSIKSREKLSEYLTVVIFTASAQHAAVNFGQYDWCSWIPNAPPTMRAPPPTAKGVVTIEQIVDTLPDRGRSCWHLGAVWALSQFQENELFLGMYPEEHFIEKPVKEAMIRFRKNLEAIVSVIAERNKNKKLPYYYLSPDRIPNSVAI
- assay-summary: inhibition of 5-HETE production in broken RBL-1 cells (isolated enzyme)
- Format: biochemical
- condition-label: Table A; 3 μM; broken RBL-1 cell supernatant; read-out: Isolated Enzyme % Inhib.
inhibition at 3 µM values, listed per item
value-type: inhibition at 3 µM (%)

INSERT INTO measurements (compound, value_type, reported_measurement) VALUES
  ('CN(O)C(=O)OCCc1cc(-c2ccc(Cl)cc2)n(-c2ccc(OCc3ccc4ccccc4n3)cc2)n1 [Cpd 5, Hydrate]', 'inhibition at 3 µM', 93),
  ('CN(O)C(=O)CCc1cc(-c2ccc(OCc3ccc4ccccc4n3)cc2)n(-c2ccc(Cl)cc2)n1 [Cpd 21]', 'inhibition at 3 µM', 15),
  ('CN(O)C(=O)CCc1cc(-c2ccc(Cl)cc2)n(-c2ccc(OCc3ccc4ccccc4n3)cc2)n1 [Cpd 22]', 'inhibition at 3 µM', 100),
  ('O=C(O)Cc1cc(-c2ccc(Cl)cc2)n(-c2ccc(OCc3ccc4ccccc4n3)cc2)n1 [Cpd 2]', 'inhibition at 3 µM', 15),
  ('O=CCCc1cc(-c2ccc(Cl)cc2)n(-c2ccc(OCc3ccc4ccccc4n3)cc2)n1 [Cpd 8]', 'inhibition at 3 µM', 49),
  ('COc1ccc(-n2nc(CCC(=O)N(C)O)cc2-c2ccc(OCc3ccc4ccccc4n3)cc2)cc1 [Cpd 16]', 'inhibition at 3 µM', 87),
  ('O=C(O)CCc1cc(-c2ccc(Cl)cc2)n(-c2ccc(OCc3ccc4ccccc4n3)cc2)n1 [Cpd 15]', 'inhibition at 3 µM', 0),
  ('ClCCc1cc(-c2ccc(Cl)cc2)n(-c2ccc(OCc3ccc4ccccc4n3)cc2)n1 [Cpd 4]', 'inhibition at 3 µM', 55),
  ('O=C(O)CCc1cc(-c2ccc(OCc3ccc4ccccc4n3)cc2)n(-c2ccc(Cl)cc2)n1 [Cpd 18]', 'inhibition at 3 µM', 0),
  ('CCOC(=O)Cc1cc(-c2ccc(Cl)cc2)n(-c2ccc(OCc3ccc4ccccc4n3)cc2)n1 [Cpd 1]', 'inhibition at 3 µM', 29),
  ('OCCc1cc(-c2ccc(Cl)cc2)n(-c2ccc(OCc3ccc4ccccc4n3)cc2)n1 [Cpd 3]', 'inhibition at 3 µM', 31),
  ('Cc1cc(-c2ccc(Cl)cc2)n(-c2ccc(OCc3ccc4ccccc4n3)cc2)n1 [Cpd 11]', 'inhibition at 3 µM', 32),
  ('COC(=O)CCc1cc(-c2ccc(OCc3ccc4ccccc4n3)cc2)n(-c2ccccc2)n1 [Cpd 17]', 'inhibition at 3 µM', 19),
  ('CC(C)COC(=O)CCc1cc(-c2ccc(Cl)cc2)n(-c2ccc(OCc3ccc4ccccc4n3)cc2)n1 [Cpd 10]', 'inhibition at 3 µM', 34),
  ('OCCCc1cc(-c2ccc(Cl)cc2)n(-c2ccc(OCc3ccc4ccccc4n3)cc2)n1 [Cpd 20]', 'inhibition at 3 µM', 21),
  ('ON=CCCc1cc(-c2ccc(Cl)cc2)n(-c2ccc(OCc3ccc4ccccc4n3)cc2)n1 [Cpd 9, Hydrate]', 'inhibition at 3 µM', 44),
  ('CCOC(=O)CCc1cc(-c2ccc(Cl)cc2)n(-c2ccc(OCc3ccc4ccccc4n3)cc2)n1 [Cpd 12]', 'inhibition at 3 µM', 19),
  ('O=C(O)CCc1cc(-c2ccc(OCc3ccc4ccccc4n3)cc2)n(-c2ccccc2)n1 [Cpd 19]', 'inhibition at 3 µM', 0);
